So I've got a bunch of compounds here, and I need their IC50 values.
TARGET: Human DP1 receptor (Homo sapiens (Human), UniProt Q13258)
Sequence (Q13258 whole entry): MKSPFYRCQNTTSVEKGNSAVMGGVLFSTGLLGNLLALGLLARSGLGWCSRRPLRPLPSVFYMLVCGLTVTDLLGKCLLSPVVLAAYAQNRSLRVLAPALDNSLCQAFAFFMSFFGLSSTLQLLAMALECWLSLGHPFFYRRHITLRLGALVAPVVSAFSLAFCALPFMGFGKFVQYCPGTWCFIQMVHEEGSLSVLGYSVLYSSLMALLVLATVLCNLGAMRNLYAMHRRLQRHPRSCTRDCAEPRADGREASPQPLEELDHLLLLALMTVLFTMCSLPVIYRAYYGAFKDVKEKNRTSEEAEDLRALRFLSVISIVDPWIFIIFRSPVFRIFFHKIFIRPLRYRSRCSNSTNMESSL
TEST_DESCRIPTION: Human DP1 inhibitory activity in DP1-expressing cell (PGD2-induced cAMP)
Format: cell-based
TEST_CONTEXT: category of cAMP IC50, human DP1 receptor expressing Jurkut cell
Protocol: Compounds were categorized as AA (cAMP is less than 100 nM) and A (cAMP is more than 100 nM and less than 5000 nM) as shown in Table 99 and 100.

Data request, read-out IC50, for `CC(C)Oc1ccc(S(=O)(=O)N2C[C@H](n3nc(CC(=O)O)c4ccc(F)cc43)C[C@H]2CC#N)cc1` 100 to 5000 nM

Data request, read-out IC50, for `CCOc1ccc(S(=O)(=O)N2C[C@@H](C)[C@@H](n3nc(CC(=O)O)c4ccc(Cl)cc43)C2)cc1` < 100 nM

Data request, read-out IC50, for `COc1ccc(S(=O)(=O)N2C[C@@H](C)[C@@H](n3nc(CC(=O)O)c4ccccc43)C2)cc1` < 100 nM

Data request, read-out IC50, for `CC(C)Oc1ccc(S(=O)(=O)N2C[C@H](n3nc(CC(=O)O)c4ccc(F)cc43)C[C@@H]2COc2cccc(O)c2)cc1` < 100 nM

Data request, read-out IC50, for `C[C@H]1C[C@@H](n2nc(CC(=O)O)c3ccc(F)cc32)CCN1S(=O)(=O)c1ccc(F)cc1` 100 to 5000 nM

Data request, read-out IC50, for `CC(C)Oc1ccc(S(=O)(=O)N2C[C@H](n3nc(CC(=O)O)c4ccc(F)cc43)C[C@@H]2c2ncc[nH]2)cc1` 100 to 5000 nM

Data request, read-out IC50, for `CC(C)Oc1ccc(S(=O)(=O)N2C[C@@H](CCO)[C@@H](n3nc(CC(=O)O)c4ccc(F)cc43)C2)cc1` 100 to 5000 nM

Data request, read-out IC50, for `C[C@H]1CN(S(=O)(=O)c2ccc(OC(F)F)cc2)C[C@H]1n1nc(CC(=O)O)c2ccc(F)cc21` 100 to 5000 nM

Data request, read-out IC50, for `CCOc1ccc(S(=O)(=O)N2C[C@@H](C)[C@@H](n3nc(CC(=O)O)c4ccccc43)C2)c(F)c1` < 100 nM

Data request, read-out IC50, for `CCOc1ccc(S(=O)(=O)N2C[C@@H](C)[C@@H](n3nc(CC4=NNC(=O)C4)c4ccccc43)C2)cc1` 100 to 5000 nM

Data request, read-out IC50, for `CC(C)Oc1ccc(S(=O)(=O)N2C[C@H](n3nc(CC(=O)O)c4cccc(F)c43)C[C@@H]2C(F)F)cc1` 100 to 5000 nM

Data request, read-out IC50, for `CC(C)Oc1ccc(S(=O)(=O)N2C[C@H](n3nc(CC(=O)O)c4ccc(F)cc43)C[C@@H]2c2ccncc2)cc1` 100 to 5000 nM

Data request, read-out IC50, for `C[C@@H]1CN(S(=O)(=O)c2ccc(OC(F)F)cc2)C[C@H]1n1nc(CC(=O)O)c2ccccc21` 100 to 5000 nM

Data request, read-out IC50, for `CC(C)Oc1ccc(S(=O)(=O)N2C[C@H](n3nc(CC(=O)O)c4ccc(F)cc43)C[C@@H]2CC#N)cc1` 100 to 5000 nM

Data request, read-out IC50, for `C[C@@H]1CN(S(=O)(=O)c2ccc(OCF)cc2)C[C@@H]1n1nc(CC(=O)O)c2ccccc21` < 100 nM

Data request, read-out IC50, for CCOc1ccc(S(=O)(=O)N2C[C@H](n3nc(CC(=O)O)c4ccccc43)[C@@](C)(F)C2)cn1 (racemic) 100 to 5000 nM

Data request, read-out IC50, for `CCOc1ccc(S(=O)(=O)N2C[C@@H](C)[C@@H](n3cc(CC(=O)O)c4ccc(-c5cnn(C)c5)cc43)C2)cc1` 100 to 5000 nM

Data request, read-out IC50, for `CC(C)Oc1ccc(S(=O)(=O)N2C[C@H](n3nc(CC(=O)O)c4ccc(F)cc43)C[C@@H]2COc2nc3ccccc3s2)cc1` < 100 nM

Data request, read-out IC50, for `C[C@@H]1CN(S(=O)(=O)c2ccc(C(F)(F)F)cc2)C[C@@H]1n1nc(CC(=O)O)c2ccc(F)cc21` 100 to 5000 nM

Data request, read-out IC50, for `CC(C)Oc1ccc(S(=O)(=O)N2C[C@@H](C)[C@@H](n3nc(CC(=O)O)c4ccc(Cl)cc43)C2)cn1` < 100 nM

Data request, read-out IC50, for `CCOc1ccc(S(=O)(=O)N2C[C@@H](C)[C@@H](n3nc(CC(=O)O)c4ccc(C)cc43)C2)cn1` < 100 nM

Data request, read-out IC50, for `CCOc1ccc(S(=O)(=O)N2C[C@@H](C)[C@@H](n3nc(CC(=O)O)c4ccccc43)C2)c(CCCO)c1` 100 to 5000 nM

Data request, read-out IC50, for `CCOCCOc1ccc(S(=O)(=O)N2C[C@@H](C)[C@@H](n3nc(CC(=O)O)c4ccccc43)C2)cc1` 100 to 5000 nM

Data request, read-out IC50, for `CCc1ccc(S(=O)(=O)N2C[C@@H](C)[C@@H](n3nc(CC(=O)O)c4ccc(C)cc43)C2)cc1` < 100 nM

Data request, read-out IC50, for `CCOc1ccc(S(=O)(=O)N2C[C@@H](C)[C@@H](n3nc(CC(=O)O)c4ccccc43)C2)c(CCCNC(C)=O)c1` 100 to 5000 nM

Data request, read-out IC50, for `CCOc1ccc(S(=O)(=O)N2C[C@H](n3nc(CC(=O)O)c4ccccc43)[C@H](C)[C@H]2C#N)cn1` 100 to 5000 nM

Data request, read-out IC50, for `CCOc1ccc(S(=O)(=O)N2C[C@@H](C)[C@@H](n3nc(CC(=O)O)c4c(C)cccc43)C2)cn1` < 100 nM

###

So I've got a bunch of compounds here, and I need their pIC50 values.
TARGET: Human DP1 receptor (Homo sapiens (Human), UniProt Q13258)
TEST_DESCRIPTION: Human DP1 inhibitory activity in DP1-expressing cell (PGD2-induced cAMP)
Type: cell-based
TEST_CONTEXT: category of cAMP IC50, human DP1 receptor expressing Jurkut cell
pIC50: −log10 of the molar value.

Data request, read-out pIC50, for CCOc1ccc(S(=O)(=O)N2C[C@@H](C)[C@@H](n3nc(CC(=O)NS(C)(=O)=O)c4ccccc43)C2)cc1 [Compound I-212] 5.30 to 7.00

Data request, read-out pIC50, for CC(C)Oc1ccc(S(=O)(=O)N2C[C@@H](C)[C@@H](n3nc(CC(=O)O)c4ccccc43)C2)cc1 [Compound I-35] > 7.00

Data request, read-out pIC50, for CCOc1ccc(S(=O)(=O)N2C[C@@H](n3nc(CC(=O)O)c4ccc(F)cc43)[C@@H](C)[C@@H]2C#N)cc1 [Compound I-155] 5.30 to 7.00

Data request, read-out pIC50, for Cc1nc2ccc(S(=O)(=O)N3C[C@@H](C)[C@@H](n4nc(CC(=O)O)c5ccccc54)C3)cc2s1 [Compound I-214] > 7.00

Data request, read-out pIC50, for COCCOCCOC[C@H]1C[C@@H](n2nc(CC(=O)O)c3ccc(F)cc32)CN1S(=O)(=O)c1ccc(OC(C)C)cc1 [Compound I-291] 5.30 to 7.00

Data request, read-out pIC50, for Cc1ccc2c(CC(=O)O)nn([C@H]3CN(S(=O)(=O)c4ccc(OC(F)(F)F)cc4)C[C@H]3C)c2c1 [Compound I-231] > 7.00

Data request, read-out pIC50, for CC(C)Oc1ccc(S(=O)(=O)N2C[C@@H](C)[C@@H](n3nc(CC(=O)O)c4ccc(Cl)cc43)C2)cc1 [Compound I-135] > 7.00

###

TARGET: Human DP1 receptor (Homo sapiens (Human), UniProt Q13258)
TEST_DESCRIPTION: Human DP1 inhibitory activity in DP1-expressing cell (PGD2-induced cAMP)
Format: cell-based
TEST_CONTEXT: category of cAMP IC50, human DP1 receptor expressing Jurkut cell
So I've got a bunch of compounds here, and I need their IC50 values.

Data request, read-out IC50, for `C[C@@H]1CN(S(=O)(=O)c2ccc(Oc3ccccc3)nc2)C[C@@H]1n1nc(CC(=O)O)c2ccccc21` 100 to 5000 nM

Data request, read-out IC50, for `CCOc1ccc(S(=O)(=O)N2C[C@@H](C)[C@@H](n3nc(CC(=O)O)c4ccc(C(F)(F)F)cc43)C2)cc1` < 100 nM

Data request, read-out IC50, for `CC(C)Oc1ccc(S(=O)(=O)N2C[C@@H](C)[C@@H](n3cc(CC(=O)O)c4cccnc43)C2)cc1` 100 to 5000 nM

Data request, read-out IC50, for `C=CC[C@@H]1CN(S(=O)(=O)c2ccc(OC(C)C)cc2)C[C@@H]1n1nc(CC(=O)O)c2ccc(F)cc21` < 100 nM

Data request, read-out IC50, for `CCOc1ccc(S(=O)(=O)N2C[C@H](n3nc(CC(=O)O)c4ccccc43)C[C@@H]2CF)cn1` 100 to 5000 nM

Data request, read-out IC50, for `CC(C)Oc1ccc(S(=O)(=O)N2C[C@H](n3nc(CC(=O)O)c4ccc(F)cc43)C[C@@H]2COc2ccccc2O)cc1` < 100 nM

Data request, read-out IC50, for `CCc1ccc(S(=O)(=O)N2C[C@@H](C)[C@@H](n3nc(CC(=O)O)c4ccc(F)cc43)C2)cc1` < 100 nM
